target: Prostaglandin E2 receptor EP2 subtype (Homo sapiens) (UniProt P43116); test: compounds shifting PGE2 potency at EP2 – cell-based, human EP2, PGE2 EC50 shift, dose response (AID 1421); conditions: EP2-expressing cells, PGE2 EC50 shift by compound; at 20 µM
Sequence (P43116 whole entry, looked up): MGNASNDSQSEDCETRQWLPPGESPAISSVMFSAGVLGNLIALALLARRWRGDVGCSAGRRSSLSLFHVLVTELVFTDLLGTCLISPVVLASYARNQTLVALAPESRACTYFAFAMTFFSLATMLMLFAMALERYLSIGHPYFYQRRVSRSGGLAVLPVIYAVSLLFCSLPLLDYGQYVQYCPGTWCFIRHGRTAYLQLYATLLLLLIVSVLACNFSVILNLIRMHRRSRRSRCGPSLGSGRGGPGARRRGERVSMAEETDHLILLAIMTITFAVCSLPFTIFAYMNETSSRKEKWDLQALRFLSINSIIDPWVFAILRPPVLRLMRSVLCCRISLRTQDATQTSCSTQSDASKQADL
Screen size: about 1,300 compounds; about 140 (11%) were called active. A selection follows. Results with a measured potency or affinity are listed apart.
parameter: PGE2 EC50 with compound

CC1(c2cc([N+](=O)[O-])cc([N+](=O)[O-])c2)CC(C)(C)N(C(=O)c2ccccc2)c2ccccc21 (stereo unspecified)	350 pM (inactive)
CC(C)c1nc(N2CCN(C(=O)c3ccccc3)CC2)c(C#N)c2c1COC(C)(C)C2	350 pM (inactive)
Cc1cc(O)c(C=O)c2c1C(=O)Oc1c(C)c(O)c3c(c1O2)C(O)OC3=O (stereo unspecified)	420 pM (inactive)
CCCCOP(=O)(OCCCC)C(Nc1ccccc1)c1ccc2c(c1)OCO2 (stereo unspecified)	360 pM (inactive)
CC(C)c1ccc(OCC(=O)NC(=S)Nc2ccc3c4c(cccc24)CC3)cc1	18600 pM (inactive)
Cc1nn(Cc2c(Cl)cccc2Cl)c(C)c1C(=O)NCc1ccc(C)n1C	760 pM (inactive)
COc1cccc(N=c2oc3c(C)ncc(CO)c3cc2C(=O)Nc2ccccc2OC)c1	960 pM (inactive)
Cc1ccc(S(=O)(=O)N2c3ccccc3OCC2C(C)(C)C)cc1 (stereo unspecified)	140 pM (inactive)
O=C(NNc1ccc([N+](=O)[O-])cc1[N+](=O)[O-])C1C2CCCCC21 (stereo unspecified)	1490 pM (inactive)
N#CN=C1SCCS1	670 pM (inactive)
CCCCCOC(=O)c1[nH]c2c(c1C)C(=O)C(C(=O)OC)C(C)C2 (stereo unspecified)	880 pM (inactive)
Cc1ccc(NCc2n[nH]c(=S)n2Cc2ccccc2)cc1Cl	640 pM (inactive)
OCCCNc1nc(-c2ccc(Br)cc2)nnc1-c1ccc(Cl)cc1	1430 pM (inactive)
CCC(Sc1nc(-c2ccccc2)c(C#N)c(=O)[nH]1)C(=O)Nc1cc(C)on1 (stereo unspecified)	3580 pM (inactive)
CCOC(=O)CC(=O)CSc1ncnc2c1oc1ccccc12	2960 pM (inactive)
CCOC(=O)c1cnc2c(c(C)nn2C)c1Oc1ccc(Cl)cc1	520 pM (inactive)
